- System: all mosquito P450s of the panel except CYP6Z2 and CYP6P2 (CYP6M2, CYP6P3, CYP6P4, CYP9J5)
- EXPERIMENTAL DETAILS: in vitro
- TEST CONDITIONS: Anopheles gambiae, pH 7.4, IC50 of DEF activity
pIC50: −log10 of the molar value.
MEASURED ENDPOINT: pIC50

The reported pIC50 of the molecule CC(COc1ccc(Oc2ccccc2)cc1)Oc1ccccn1 (stereo not shown) was < 5.00

====

- ASSAYED TARGET: CYP6P2 (Anopheles gambiae, UniProt Q8T629, V81I)
- Sequence (Q8T629 1-507 V81I): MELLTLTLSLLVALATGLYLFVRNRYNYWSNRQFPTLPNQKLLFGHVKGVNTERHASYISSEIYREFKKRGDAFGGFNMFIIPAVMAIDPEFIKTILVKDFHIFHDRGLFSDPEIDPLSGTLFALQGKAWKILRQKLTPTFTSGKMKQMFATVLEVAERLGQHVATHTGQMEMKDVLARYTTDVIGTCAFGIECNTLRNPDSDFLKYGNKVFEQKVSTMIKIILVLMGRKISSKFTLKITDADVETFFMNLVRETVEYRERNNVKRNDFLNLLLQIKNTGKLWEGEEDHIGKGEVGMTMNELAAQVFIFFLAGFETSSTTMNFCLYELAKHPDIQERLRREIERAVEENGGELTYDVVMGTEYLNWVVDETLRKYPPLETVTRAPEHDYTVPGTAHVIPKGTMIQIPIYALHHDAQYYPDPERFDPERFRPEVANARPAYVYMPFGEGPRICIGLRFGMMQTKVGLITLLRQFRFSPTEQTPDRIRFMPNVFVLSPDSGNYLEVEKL
- Sequence (Q7QFI3 1-587 partner): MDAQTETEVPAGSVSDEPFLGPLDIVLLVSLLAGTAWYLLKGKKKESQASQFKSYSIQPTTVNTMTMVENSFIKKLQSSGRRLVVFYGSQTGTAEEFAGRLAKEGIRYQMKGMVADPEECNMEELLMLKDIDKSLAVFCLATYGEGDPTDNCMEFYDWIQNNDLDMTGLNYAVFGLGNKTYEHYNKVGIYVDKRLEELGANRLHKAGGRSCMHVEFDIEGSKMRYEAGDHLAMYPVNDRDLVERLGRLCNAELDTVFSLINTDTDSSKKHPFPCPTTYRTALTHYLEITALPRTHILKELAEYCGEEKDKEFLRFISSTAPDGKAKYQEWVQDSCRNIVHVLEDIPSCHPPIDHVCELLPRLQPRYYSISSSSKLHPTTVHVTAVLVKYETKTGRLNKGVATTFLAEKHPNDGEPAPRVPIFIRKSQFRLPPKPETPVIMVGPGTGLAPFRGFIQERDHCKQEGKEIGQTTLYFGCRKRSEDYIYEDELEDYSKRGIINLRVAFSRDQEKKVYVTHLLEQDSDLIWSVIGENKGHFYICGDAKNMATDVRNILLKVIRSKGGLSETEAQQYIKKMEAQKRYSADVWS
- Sequence (Q86QH4 1-128 partner): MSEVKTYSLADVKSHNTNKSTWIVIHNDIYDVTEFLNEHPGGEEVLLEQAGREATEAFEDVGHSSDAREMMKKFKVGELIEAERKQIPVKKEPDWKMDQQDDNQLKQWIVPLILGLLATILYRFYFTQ
- EXPERIMENTAL DETAILS: biochemical
- TEST CONDITIONS: IC50 of DEF metabolism
MEASURED ENDPOINT: IC50 (µM)
Expressed in µM, but write only the number.

The reported IC50 of the compound CC1(C)C(C=C(Cl)Cl)C1C(=O)OCc1cccc(Oc2ccccc2)c1 (mixture of isomers) [Permethrin] was 8.61

The reported IC50 of the compound CC1(C)[C@H](C(=O)O[C@H](C#N)c2cccc(Oc3ccccc3)c2)[C@@H]1C=C(Br)Br [Deltamethrin] was 4.97

The reported IC50 of the compound CC(COc1ccc(Oc2ccccc2)cc1)Oc1ccccn1 (stereo not drawn) [PPF, pyriproxyfen] was 9.95
